// data source = patent US7056679

Reported ETAG (OD) is given for each of the following binders.
# system_under_test: T1, antibody raised against ETAG
# T1 construct: Coated at 500 ng/well; also called E-tag antibody
# protocol_text: phage ELISA

| binder | ETAG (OD) |
| --- | --- |
| LFRFSGTGMASLPCVGWHLVAAAGAPVPYPDPLEPRP [DGI-2-20F-PP-B6] | 37 |
| TIDVARRFGYGWWDLWLDGDAAAGAPVPYPDPLEPRP [DGI-2-20R-3-C3] | 20.2 |
| VSFAHDWGRWWYQWEVGAAAGAPVPYPDPLEPRP [DGI-2-20R-4-G22] | 12.9 |
| SRPGWCSRGTAWGFPGCSSSAAAGAPVPYPDPLEPRP [DGI-2-20R-3-C4] | 19.1 |
| VVGYAQGDGLEGGLGSSRDGSAAAGAPVPYPDPLEPRP [DGI-2-20F-PP-D8] | 2.6 |
| FRVALLSVSAGPCEGSGNTAAAGAPVPYPDPLEPRP [DGI-2-20F-PP-H7] | 3.7 |
